Origin of measurements: patent US12043601B2

Test: Compound solubility
Assay type: physicochemical
Settings: solvent at 10 mM
Experimental endpoint: Compound Solubility, 10 mM

Compound	Experimental endpoint	Observed value
CCCCNC(=O)c1nc[nH]n1 [Compound 12, N-butyl-1H-1,2,4-triazole-3-carboxamide]	Compound Solubility, 10 mM	water
COc1ccc(NC(=O)c2nc[nH]n2)cc1OC	Compound Solubility, 10 mM	water
O=C(NCc1cccc(OC(F)(F)F)c1)c1nc[nH]n1	Compound Solubility, 10 mM	DMSO
O=C(NCCc1ccccc1)c1nc[nH]n1	Compound Solubility, 10 mM	water
O=C(NCc1ccc2c(c1)OCO2)c1nc[nH]n1	Compound Solubility, 10 mM	water
COc1cccc(CNC(=O)c2nc[nH]n2)c1	Compound Solubility, 10 mM	water
O=C(Nc1cc(Cl)cc(Cl)c1)c1nc[nH]n1	Compound Solubility, 10 mM	DMSO
COc1ccc(CCNC(=O)c2nc[nH]n2)cc1	Compound Solubility, 10 mM	water
COc1ccc([C@@H](C)NC(=O)c2nc[nH]n2)cc1	Compound Solubility, 10 mM	water
C[C@H](NC(=O)c1nc[nH]n1)c1ccccc1	Compound Solubility, 10 mM	water
O=C(NCc1ccc(OC(F)(F)F)cc1)c1nc[nH]n1	Compound Solubility, 10 mM	DMSO
O=C(NCCCc1ccccc1)c1nc[nH]n1	Compound Solubility, 10 mM	water
O=C(NCCCCc1ccccc1)c1nc[nH]n1	Compound Solubility, 10 mM	DMSO
O=C(Nc1ccc(C(F)(F)F)cc1)c1nc[nH]n1	Compound Solubility, 10 mM	DMSO
O=C(Nc1cccc(OC(F)(F)F)c1)c1nc[nH]n1	Compound Solubility, 10 mM	DMSO
CC(C)(C)c1ccc(NC(=O)c2nc[nH]n2)cc1	Compound Solubility, 10 mM	DMSO
COc1cccc(CNC(=O)c2nc[nH]n2)c1OC	Compound Solubility, 10 mM	water
COc1ccc(CNC(=O)c2nc[nH]n2)cc1	Compound Solubility, 10 mM	water
COc1ccc(CNC(=O)c2nc[nH]n2)cc1C(F)(F)F	Compound Solubility, 10 mM	water
C[C@@H](NC(=O)c1nc[nH]n1)c1ccccc1	Compound Solubility, 10 mM	water
COc1ccc(CNC(=O)c2nc[nH]n2)cc1OC	Compound Solubility, 10 mM	water
O=C(NCCc1c[nH]c2ccccc12)c1nc[nH]n1	Compound Solubility, 10 mM	water
